Taken from patent US11555041B2.

Target: menin-MLL interaction (Menin MLL 4-43) (Homo sapiens)
Sequence (O00255 1-610): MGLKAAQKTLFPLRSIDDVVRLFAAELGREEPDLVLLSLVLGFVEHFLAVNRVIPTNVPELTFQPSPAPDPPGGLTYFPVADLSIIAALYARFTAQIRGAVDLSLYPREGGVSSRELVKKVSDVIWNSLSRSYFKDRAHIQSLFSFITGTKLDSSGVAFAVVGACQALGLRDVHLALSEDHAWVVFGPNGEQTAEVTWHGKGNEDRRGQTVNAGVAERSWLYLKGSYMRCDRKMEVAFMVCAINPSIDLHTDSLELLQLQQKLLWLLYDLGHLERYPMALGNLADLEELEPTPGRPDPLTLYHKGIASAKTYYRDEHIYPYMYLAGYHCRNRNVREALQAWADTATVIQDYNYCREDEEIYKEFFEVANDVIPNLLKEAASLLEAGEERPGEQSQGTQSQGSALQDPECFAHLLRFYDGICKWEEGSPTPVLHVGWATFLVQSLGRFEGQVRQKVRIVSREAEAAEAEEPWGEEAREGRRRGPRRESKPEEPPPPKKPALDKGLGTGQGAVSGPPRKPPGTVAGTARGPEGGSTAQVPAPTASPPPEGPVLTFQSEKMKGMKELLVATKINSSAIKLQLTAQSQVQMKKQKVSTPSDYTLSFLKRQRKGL
Assay: Fluorescence polarization (FP) competition assay
Assay type: binding
Conditions: fluorescence polarization assay; read-out: Menin MLL 4-43 IC50
OBSERVATION TYPE: IC50

MOLECULE: C=CC(=O)NC12CC(CCn3c(C#N)cc4c(C)c(CN5CCC(Nc6ncnc7sc(CC(F)(F)F)cc67)CC5)ccc43)(C1)C2
IC50: 250 to 1000 nM

MOLECULE: CNCC(=O)NC12CC(Cn3c(C#N)cc4c(C)c(CN5CCC(Nc6ncnc7sc(CC(F)(F)F)cc67)CC5)ccc43)(C1)C2
IC50: < 50 nM

MOLECULE: Cc1c(CN2CCC(Nc3ncnc4sc(CC(F)(F)F)cc34)CC2)ccc2c1cc(C#N)n2CC12CC(NC(=O)C(C)N)(C1)C2 (stereo not shown)
IC50: < 50 nM

MOLECULE: Cc1c(CN2CCC(Nc3ncnc4sc(CC(F)(F)F)cc34)CC2)ccc2c1cc(C#N)n2CC12CC(N)(C1)C2
IC50: 50 to 250 nM

MOLECULE: CNC(=O)C12CC(Cn3c(C#N)cc4c(C)c(CN5CCC(Nc6ncnc7sc(CC(F)(F)F)cc67)CC5)ccc43)(C1)C2
IC50: 50 to 250 nM

Exercise: Please look at this molecule and report its IC50: Cc1c(CN2CCC(Nc3ncnc4sc(CC(F)(F)F)cc34)CC2)ccc2c1cc(C#N)n2CC12CC(NC(=O)C(C)(C)O)(C1)C2
Solution: 50 to 250 nM

Exercise: Please look at this molecule and report its IC50: Cc1c(CN2CCC(Nc3ncnc4sc(CC(F)(F)F)cc34)CC2)ccc2c1cc(C#N)n2CC12CC(N(C)C)(C1)C2
Solution: 250 to 1000 nM

Exercise: Please look at this molecule and report its IC50: Cc1c(CN2CCC(Nc3ncnc4sc(CC(F)(F)F)cc34)CC2)ccc2c1cc(C#N)n2CC12CC(NC(=O)CN3CCOCC3)(C1)C2
Solution: < 50 nM

Exercise: Please look at this molecule and report its IC50: Cc1c(CN2CCC(Nc3ncnc4sc(CC(F)(F)F)cc34)CC2)ccc2c1cc(C#N)n2CC12CC(NC(=O)CN)(C1)C2 [Compound 17]
Solution: < 50 nM
